System: MDA-MB-231 breast
Assay: NCI-60 one-dose screen, 48 h
Condition Label: 10 µM unless noted
The panel holds about 83,000 compounds, 20% with a hit somewhere; the sample as a whole holds those more often. Active and inactive are the calls of the source. The calls were made as follows: active = growth percent below 10; inactive = the rest.
In this exercise, the only acceptable responses are true = active, false = inactive

Compound: Cc1ccc2c(c1)CC(O)CC1C(=O)N(CCO)CC(=O)N21 (centres undefined)
Category Label: false
--
Compound: CC(=O)O[C@H]1CC[C@@]2(C)C(=CC[C@@H]3[C@@H]2CC[C@]2(C)C(Cl)=C(c4nc5ccc(Cl)cn5c4NC(C)(C)C)C[C@@H]32)C1
Category Label: false
--
Compound: CC1(C)CC[C@]2(CO)CC[C@]3(C)[C@H](CC[C@@H]4[C@@]5(C)CC[C@H](O)C(C)(C)[C@@H]5CC[C@]43C)[C@H]2[C@H]1O
Category Label: false
--
Compound: CCOC(=O)c1cc(C(=O)c2cc(OC)cc(OC)c2)n2ncccc12
Category Label: false

IN: What is the recorded call for this compound in the test? COCCNC(=O)Cc1cc(-c2ccc(Cl)cc2)n(-c2ccccc2)c1C
OUT: false

IN: Consider next the compound CCC(=C(c1ccc(OCCN(CC)CC)cc1)c1ccc(OCCN(CC)CC)cc1)c1ccc(Cl)cc1 in the same way.
OUT: true

IN: # repeat for c1ccc2cc(Cn3cc[n+](Cc4ccc5ccccc5c4)c3)ccc2c1
OUT: false

IN: Queued: COc1cc2c(cc1OC)CC[N+](CCC[N+](C)(C)C)=C2
OUT: false

IN: Now consider Cc1cc(C(=O)Nc2cc(Nc3ncccc3-c3ncnc4nc[nH]c34)ccc2F)cc(C(C)(C)C#N)c1 .
OUT: false

----------
Tested on: A498 renal
Assay: NCI-60 one-dose screen, 48 h (100 = growth as untreated, 0 = no growth, -100 = all killed)
Condition Label: 10 µM unless noted
Compounds without any hit were thinned out: in the full panel of roughly 83,000, 20% have a hit.
This section presents molecules with their documented growth values.
Number in %, nothing else.

Solved cases (4 shown):
Molecule: N#C/C(=N\Nc1ccccc1)C(=O)Nc1cc(-c2ccccc2)nn1-c1ccccc1
Target: A498 renal
growth (%): 1.62

Molecule: O=C(CSc1nc(-c2ccccc2)cn1-c1ccc(Cl)cc1)c1ccc([N+](=O)[O-])cc1
Target: A498 renal
growth (%): 74.6

Molecule: CCOC(=O)C1=C(c2ccccc2)N=C2SC=C(c3cccc([N+](=O)[O-])c3)N2C1c1ccc(O)cc1 (stereo not given)
Target: A498 renal
growth (%): 78.9

Molecule: C1=C2CCCC3=Cc4ccccc4OC23Oc2ccccc21
Target: A498 renal
growth (%): 5.61

IN: Given the molecule COc1ccc(C2=C/C(=C\c3ccccc3O)C(=O)N2Cc2ccccc2)cc1 , what is its reported growth?
OUT: 98.3

----------
Tested on: MDA-MB-435 melanoma
Assay: NCI-60 one-dose screen, 48 h
Condition Label: 10 µM unless noted
Experimental: Growth inhibition of the MDA-MB-435 human Melanoma tumor cell line is measured as a screen for anti-cancer activity. Cells are grown in 96 well plates and exposed to the test compound for 48 hours. Compounds are tested at a single concentration, which is 10^-5 M for most compounds. The reported endpoint is percent growth (GI% or GIPRCNT), where numbers from 0 - 100% represent growth inhibition, and numbers from -100% - 0 represent cell death. […]
About 83,000 compounds went through this panel and 20% of them were active in at least one assay; those are over-represented in the sample as a whole. Active and inactive are the calls of the source. How the source made its calls: active means growth percent below 10; inactive means the rest.
Your reply should match one of these outcome classes. active, inactive

Molecule: O=c1n(C2OC(CO)C(O)C2O)ccc2nccn12 (stereo not given)
Category Label: inactive
--
Molecule: Cc1c(Cl)cccc1NC(=O)c1sc2nc3c(cc2c1N)CCCC3
Category Label: active
--
Molecule: Oc1c(Cl)cc(Cl)c2ccc(CN3CCNCC3)nc12
Category Label: inactive

IN: I'd appreciate the recorded outcome for CC(C)(C)n1cc(-c2ccnc(NCCNS(=O)(=O)c3cccc4ccccc34)c2)c(-c2cccc(O)c2)n1 from this test.
OUT: inactive

IN: Same lookup for COc1cc2cc(Oc3ccc(NC(=O)Nc4ccc(F)c(C(F)(F)F)c4)cc3)c(C)nc2cc1OCCN1CCCCC1 , please.
OUT: active

IN: Similarly, O=c1[nH]c(CN2CCN(c3ccccc3)CC2)nc2c(Br)cc(Br)cc12 ?
OUT: inactive

IN: Now consider c1ccc(-c2nc(N3CCNCC3)c3oc(-c4ccccc4)nc3n2)cc1 and answer again.
OUT: active

IN: // next record COc1cccc(CNc2nnc(C)c(C)n2)c1O
OUT: inactive

IN: Try the molecule CN(C)CCOc1ccc(/C(=C(/CCCCCCCCCC[P+](c2ccccc2)(c2ccccc2)c2ccccc2)c2ccccc2)c2ccccc2)cc1
OUT: active

IN: Could you do the same for O=C(N/N=C/c1ccccc1Cl)c1ccccc1Nc1ccnc(C(F)(F)F)c1 , please?
OUT: inactive
